Would you mind telling me the reported pIC50 of each entry?
- tested_on: Cyclin-dependent kinases regulatory subunit 1/S-phase kinase-associated protein 2 (Homo sapiens)
- Sequence (P61024 whole entry): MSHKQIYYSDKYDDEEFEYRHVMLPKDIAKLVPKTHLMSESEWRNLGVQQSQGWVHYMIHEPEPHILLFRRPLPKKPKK
- Sequence (Q13309 whole entry): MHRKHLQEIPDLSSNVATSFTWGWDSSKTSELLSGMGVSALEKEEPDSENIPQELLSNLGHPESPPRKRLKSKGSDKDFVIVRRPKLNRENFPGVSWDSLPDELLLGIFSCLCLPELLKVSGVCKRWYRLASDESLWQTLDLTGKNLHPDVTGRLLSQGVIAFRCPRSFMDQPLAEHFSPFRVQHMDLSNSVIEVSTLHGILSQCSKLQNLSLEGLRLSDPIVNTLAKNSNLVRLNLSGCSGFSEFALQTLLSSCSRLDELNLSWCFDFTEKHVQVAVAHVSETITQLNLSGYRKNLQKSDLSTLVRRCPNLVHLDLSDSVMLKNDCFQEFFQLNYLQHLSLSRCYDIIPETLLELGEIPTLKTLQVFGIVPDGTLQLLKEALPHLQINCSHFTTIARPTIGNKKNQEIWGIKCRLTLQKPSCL
- assay_overview: Inhibition of GST-tagged SKP2 (unknown origin) binding to His6-tagged CKS1 (unknown origin) preincubated with SKP2 for 10 mins followed by CKS1 addition for 20 mins and measured after by HTRF method
- Format: protein assay
pIC50: −log10 of the molar value.

**Q:** Quick check: pIC50 of COc1cc(OC)c(-c2cc(C)nc3nc(SCc4ccc(C)cc4)nn23)c(OC)c1 ?
**A:** < 4.00

**Q:** Same lookup for Cc1cc(-c2ccc(C(=O)N3CCN(C)CC3)cc2)n2nc(SCc3ccc(Br)cc3)nc2n1 , please.
**A:** < 4.00

**Q:** Same lookup for COC(=O)c1cccc(CSc2nc3nc(C)cc(-c4c(OC)cc(OC)cc4OC)n3n2)c1 , please.
**A:** < 4.00

**Q:** Same lookup for COc1cc(OC)c(-c2cc(C)nc3nc(SCC4CCOCC4)nn23)c(OC)c1 , please.
**A:** < 4.30

**Q:** Same lookup for CCCSc1nc2nc(C)cc(-c3c(OC)cc(OC)cc3OC)n2n1 , please.
**A:** < 4.00

**Q:** Same lookup for Cc1cc(-c2cccc(C(=O)O)c2)n2nc(SCc3ccc(Br)cc3)nc2n1 , please.
**A:** < 4.00

Reference source for all entries: ChEMBL document CHEMBL5579901
